# target_entity: T1, AFP158/HLA-A*02:01 complex (human)
# T1 construct: flowed over the chip as analyte; also called AFP158 peptide/HLA-A*02:01 complex
# assay_name: SPR (BIAcore T200), crude scFv captured, complex flowed over

{"binder": "49-AS170036 VL1VH1-56N98F108A (scFv, Crude scFv mutein of AS170036 VL1VH1) scFv: QSALTQPRSVSGSPGQSVTISCAGTSSDVGSENYVSWYQQHPGKAPKLMIYQVNKRASGVPDRFSGSKSGNTASLTISGLQAEDEADYYCASYRSSDFNIVFGGGTKLTVLGGGGSGGGGSGGGGSEVQLVESGGGLVQPGGSLRLSCAASGFTFSSYAMSWVRQAPGKGLEWVSTINSGTNSPYYADSVKGRFTISRDNSKNTLYLQMNSLRAEDTAVYYCAKNFFDGSWFLAPPAMDYWGQGTLVTVSSHHHHHH", "scale_unit": "RU", "SPR binding level": 604}
{"binder": "67-AS170036 VL1VH1-57K98F108A (scFv, Crude scFv mutein of AS170036 VL1VH1) scFv: QSALTQPRSVSGSPGQSVTISCAGTSSDVGSENYVSWYQQHPGKAPKLMIYQVNKRASGVPDRFSGSKSGNTASLTISGLQAEDEADYYCASYRSSDFNIVFGGGTKLTVLGGGGSGGGGSGGGGSEVQLVESGGGLVQPGGSLRLSCAASGFTFSSYAMSWVRQAPGKGLEWVSTINSGTGKPYYADSVKGRFTISRDNSKNTLYLQMNSLRAEDTAVYYCAKNFFDGSWFLAPPAMDYWGQGTLVTVSSHHHHHH", "scale_unit": "RU", "SPR binding level": 686}
{"binder": "40-AS170036 VL1VH1-56Y98F108A (scFv, Crude scFv mutein of AS170036 VL1VH1) scFv: QSALTQPRSVSGSPGQSVTISCAGTSSDVGSENYVSWYQQHPGKAPKLMIYQVNKRASGVPDRFSGSKSGNTASLTISGLQAEDEADYYCASYRSSDFNIVFGGGTKLTVLGGGGSGGGGSGGGGSEVQLVESGGGLVQPGGSLRLSCAASGFTFSSYAMSWVRQAPGKGLEWVSTINSGTYSPYYADSVKGRFTISRDNSKNTLYLQMNSLRAEDTAVYYCAKNFFDGSWFLAPPAMDYWGQGTLVTVSSHHHHHH", "scale_unit": "RU", "SPR binding level": 587}
{"binder": "48-AS170036 VL1VH1-56Y98Q108S (scFv, Crude scFv mutein of AS170036 VL1VH1) scFv: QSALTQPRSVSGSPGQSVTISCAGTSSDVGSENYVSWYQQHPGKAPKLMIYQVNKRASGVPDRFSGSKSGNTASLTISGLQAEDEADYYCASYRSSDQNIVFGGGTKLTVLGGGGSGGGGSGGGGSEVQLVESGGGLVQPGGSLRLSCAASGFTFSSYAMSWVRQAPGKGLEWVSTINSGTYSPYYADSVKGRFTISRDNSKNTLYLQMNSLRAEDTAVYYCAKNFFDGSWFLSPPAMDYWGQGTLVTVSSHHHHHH", "scale_unit": "RU", "SPR binding level": 817}
{"binder": "15-AS170036 VL1VH1-57M98Q (scFv, Crude scFv mutein of AS170036 VL1VH1) scFv: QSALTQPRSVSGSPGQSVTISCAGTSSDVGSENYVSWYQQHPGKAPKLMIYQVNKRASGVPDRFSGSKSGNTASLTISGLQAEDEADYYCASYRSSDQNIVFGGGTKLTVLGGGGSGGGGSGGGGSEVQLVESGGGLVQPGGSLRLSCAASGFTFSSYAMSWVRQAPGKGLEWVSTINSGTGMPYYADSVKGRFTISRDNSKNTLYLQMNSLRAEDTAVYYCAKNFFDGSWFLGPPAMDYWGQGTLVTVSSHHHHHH", "scale_unit": "RU", "SPR binding level": 554}
{"binder": "05-AS170036 VL1VH1-56N98I (scFv, Crude scFv mutein of AS170036 VL1VH1) scFv: QSALTQPRSVSGSPGQSVTISCAGTSSDVGSENYVSWYQQHPGKAPKLMIYQVNKRASGVPDRFSGSKSGNTASLTISGLQAEDEADYYCASYRSSDINIVFGGGTKLTVLGGGGSGGGGSGGGGSEVQLVESGGGLVQPGGSLRLSCAASGFTFSSYAMSWVRQAPGKGLEWVSTINSGTNSPYYADSVKGRFTISRDNSKNTLYLQMNSLRAEDTAVYYCAKNFFDGSWFLGPPAMDYWGQGTLVTVSSHHHHHH", "scale_unit": "RU", "SPR binding level": 564}
{"binder": "25-AS170036 VL1VH1-57K108A (scFv, Crude scFv mutein of AS170036 VL1VH1) scFv: QSALTQPRSVSGSPGQSVTISCAGTSSDVGSENYVSWYQQHPGKAPKLMIYQVNKRASGVPDRFSGSKSGNTASLTISGLQAEDEADYYCASYRSSDHNIVFGGGTKLTVLGGGGSGGGGSGGGGSEVQLVESGGGLVQPGGSLRLSCAASGFTFSSYAMSWVRQAPGKGLEWVSTINSGTGKPYYADSVKGRFTISRDNSKNTLYLQMNSLRAEDTAVYYCAKNFFDGSWFLAPPAMDYWGQGTLVTVSSHHHHHH", "scale_unit": "RU", "SPR binding level": 554}
{"binder": "10-AS170036 VL1VH1-57K98F (scFv, Crude scFv mutein of AS170036 VL1VH1) scFv: QSALTQPRSVSGSPGQSVTISCAGTSSDVGSENYVSWYQQHPGKAPKLMIYQVNKRASGVPDRFSGSKSGNTASLTISGLQAEDEADYYCASYRSSDFNIVFGGGTKLTVLGGGGSGGGGSGGGGSEVQLVESGGGLVQPGGSLRLSCAASGFTFSSYAMSWVRQAPGKGLEWVSTINSGTGKPYYADSVKGRFTISRDNSKNTLYLQMNSLRAEDTAVYYCAKNFFDGSWFLGPPAMDYWGQGTLVTVSSHHHHHH", "scale_unit": "RU", "SPR binding level": 614}
{"binder": "34-AS170036 VL1VH1-98I108A (scFv, Crude scFv mutein of AS170036 VL1VH1) scFv: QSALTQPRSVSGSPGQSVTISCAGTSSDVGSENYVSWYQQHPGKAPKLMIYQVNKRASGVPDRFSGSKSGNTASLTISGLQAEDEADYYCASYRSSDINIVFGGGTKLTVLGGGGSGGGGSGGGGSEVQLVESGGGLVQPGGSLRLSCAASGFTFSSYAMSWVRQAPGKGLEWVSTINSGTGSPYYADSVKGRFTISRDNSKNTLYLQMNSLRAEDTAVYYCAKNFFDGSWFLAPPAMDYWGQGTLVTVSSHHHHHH", "scale_unit": "RU", "SPR binding level": 559}

The reported measurements were obtained from patent US20240279318A1.
